Target or system Prothrombin (Homo sapiens, UniProt P00734): recorded IC50 listed per item.
value-kind: IC50 (nM)

P: COc1cccc(N(CCC(=O)O)C(=O)c2ccc3c(c2)nc(CNc2ccc(C(=N)N)cc2F)n3C)c1
Q: Cc1ccc(N(CCC(=O)O)C(=O)c2ccc3c(c2)nc(CNc2ccc(C(=N)N)cc2F)n3C)nc1
R: CCn1c(CNc2ccc(C(=N)N)cc2F)nc2cc(C(=O)N(CCC(=O)O)c3ccc(Cl)cc3)ccc21
Q. Re-order the entries listed above so their IC50 values fall from first to last. Labels, requested order.
A. Q, R, P
(Q: 24 nM, R: 13.6 nM, P: 4.84 nM)

###

This document collects pIC50 values reported for UniProt:P00734.
pIC50: −log10 of the molar value.
value-kind: pIC50

- smi: "Cn1c(CNc2ccc(C(=N)N)cc2F)nc2cc(C(=O)N(CCC(=O)O)c3cccc(F)c3)ccc21"
  pIC50: 8.34
- smi: "CCn1c(CNc2ccc(C(=N)N)cc2F)nc2cc(C(=O)N(CCC(=O)O)c3ccccc3F)ccc21"
  pIC50: 8.43
- smi: "Cn1c(CNc2ccc(C(=N)N)cc2F)nc2cc(C(=O)N(CCC(=O)O)c3ccccc3F)ccc21"
  pIC50: 8.31
- smi: "CCn1c(CNc2ccc(C(=N)N)cc2F)nc2cc(C(=O)N(CCC(=O)O)c3cccc(F)c3)ccc21"
  pIC50: 8.31
